- measurement target: MRGPRX4 (Homo sapiens, UniProt Q96LA9)
- Sequence (Q96LA9 whole entry): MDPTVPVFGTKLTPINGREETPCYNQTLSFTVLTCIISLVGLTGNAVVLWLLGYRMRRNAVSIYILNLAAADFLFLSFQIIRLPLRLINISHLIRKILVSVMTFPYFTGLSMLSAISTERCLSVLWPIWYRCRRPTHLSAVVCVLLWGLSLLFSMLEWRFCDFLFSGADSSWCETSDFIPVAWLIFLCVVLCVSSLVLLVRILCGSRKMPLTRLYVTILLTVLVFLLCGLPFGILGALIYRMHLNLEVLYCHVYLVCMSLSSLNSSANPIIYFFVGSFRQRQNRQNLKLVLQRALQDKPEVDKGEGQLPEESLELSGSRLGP
- assay: MRGPRX4 activation, Fluo-8 Ca2+ FLIPR assay in HEK293T cells stably expressing MRGPRX4
- Format: cell-based
- Design: key: fluorescence change dF/F0
- conditions used: E3-9, Conc. (Log[M]) −5.0
Each entry gets Not satisfied if its MRGPRX4 activation, Average stays under 0.02, and Satisfied if its MRGPRX4 activation, Average is 0.02 or above.

Prompt: Hello, I need to know if CC[C@H]1[C@@H](O)[C@@H]2[C@H](CC[C@]3(C)[C@@H]([C@H](C)CNC(=O)NS(=O)(=O)c4ccc5c(c4)CCC(C)(C)O5)CC[C@@H]23)[C@@]2(C)CCCC[C@@H]12 [20-2] has measured MRGPRX4 activation, Average not below 0.02. Thanks!
Completion: Satisfied

Prompt: Also CC[C@H]1[C@@H](O)[C@@H]2[C@H](CC[C@]3(C)[C@@H]([C@H](C)CCNC(=O)NS(=O)(=O)c4ccc(C(C)(C)CF)cc4)CC[C@@H]23)[C@@]2(C)CC[C@H](F)C[C@@H]12 [9-1] ?
Completion: Not satisfied

Prompt: Also CC[C@H]1[C@@H](O)[C@@H]2[C@H](CC[C@]3(C)[C@@H]([C@H](C)CCNC(=O)NS(=O)(=O)c4cc(F)ccc4F)CC[C@@H]23)[C@@]2(C)CCC(F)(F)C[C@@H]12 [10-2] ?
Completion: Not satisfied

Prompt: Also CC[C@H]1[C@@H](O)[C@@H]2[C@H](CC[C@]3(C)[C@@H]([C@H](C)CCNS(=O)(=O)c4cc(F)ccc4F)CC[C@@H]23)[C@@]2(C)CCCC[C@@H]12 [6-2] ?
Completion: Not satisfied

Prompt: Also CC[C@H]1[C@@H](O)[C@H]2[C@@H]3CC[C@](C)([C@H](C)CCNC(=O)NS(=O)(=O)C[C@]45CCC(CC4=O)C5(C)C)[C@H]3CC[C@@H]2[C@@]2(C)CC[C@H](F)C[C@@H]12 [9-5] ?
Completion: Satisfied

Prompt: Also CC[C@H]1[C@@H](O)[C@@H]2[C@H](CC[C@]3(C)[C@@H]([C@H](C)CCNC(=S)NS(=O)(=O)c4cccs4)CC[C@@H]23)[C@@]2(C)CCC(F)(F)C[C@@H]12 [11-3] ?
Completion: Not satisfied

Prompt: Also CC[C@H]1[C@@H](O)[C@@H]2[C@H](CC[C@]3(C)[C@@H]([C@H](C)CCN=C=S)CC[C@@H]23)[C@@]2(C)CCC(F)(F)C[C@@H]12 [11-2] ?
Completion: Not satisfied

Prompt: Also CC[C@H]1[C@@H](O)[C@@H]2[C@H](CC[C@]3(C)[C@@H]([C@H](C)CCNC(=O)NS(=O)(=O)c4cc(F)cc(F)c4)CC[C@@H]23)[C@@]2(C)CCC(F)(F)C[C@@H]12 [10-3] ?
Completion: Not satisfied

Prompt: Also CC[C@H]1[C@@H](O)[C@@H]2[C@H](CC[C@]3(C)[C@@H]([C@H](C)CCNC(=O)NS(=O)(=O)c4ccc(Br)cc4OC(F)(F)F)CC[C@@H]23)[C@@]2(C)CC[C@H](F)C[C@@H]12 [9-6] ?
Completion: Not satisfied

Prompt: Also [2H]C1([2H])CC[C@@]2(C)[C@@H](C1)[C@@H](CC)[C@@H](O)[C@@H]1[C@@H]2CC[C@]2(C)[C@@H]([C@H](C)CCNC(=S)NS(=O)(=O)c3cccs3)CC[C@@H]12 [14-4] ?
Completion: Not satisfied

Prompt: Also CC[C@H]1[C@@H](O)[C@@H]2[C@H](CC[C@]3(C)[C@@H]([C@H](C)CCNC(=O)NS(=O)(=O)c4cccs4)CC[C@@H]23)[C@@]2(C)CCC(F)(F)C[C@@H]12 [10-4] ?
Completion: Not satisfied

Prompt: Also CC[C@H]1[C@@H](O)[C@@H]2[C@H](CC[C@]3(C)[C@@H]([C@H](C)COC(=O)NS(=O)(=O)c4ccc(N5CCCCC5)nc4)CC[C@@H]23)[C@@]2(C)CCCC[C@@H]12 [18-3] ?
Completion: Satisfied

Prompt: Also [2H]C1([2H])CC[C@@]2(C)[C@@H](C1)[C@@H](CC)[C@@H](O)[C@@H]1[C@@H]2CC[C@]2(C)[C@@H]([C@H](C)CCN=C=S)CC[C@@H]12 [14-2] ?
Completion: Satisfied

Prompt: Also CC[C@H]1[C@@H](O)[C@@H]2[C@H](CC[C@]3(C)[C@@H]([C@H](C)CCNC(=O)NS(=O)(=O)c4cccs4)CC[C@@H]23)[C@@]2(C)CC[C@H](F)C[C@@H]12 [9-4] ?
Completion: Not satisfied
